- Test system: CCK-81 (Colorectal Carcinoma)
- assay_text: Bliss excess, mean over the matrix (fraction); higher = more synergy
# binarize Bliss excess: threshold -0.03 inclusive, high side class 1, low side class 0

Enquiry: Kindly determine if Bliss excess recorded for COc1cccc(OCCCN)c1-c1cc(Nc2cnc(C#N)cn2)n[nH]1 [Prexasertib] + C[C@@H]1COCCN1C2=NC(=NC(=C2)C3(CC3)[S@](=N)(=O)C)C4=C5C=CNC5=NC=C4 [AZD6738] (first compound max 1 µM, 7x7, partner max 10 µM) is above or exactly -0.03.
Return: class 1

Enquiry: Kindly determine if Bliss excess recorded for CC1(C)CCC(CN2CCN(c3ccc(C(=O)NS(=O)(=O)c4ccc(NCC5CCOCC5)c([N+](=O)[O-])c4)c(Oc4cnc5[nH]ccc5c4)c3)CC2)=C(c2ccc(Cl)cc2)C1 [Venetoclax] + C[C@@H]1COCCN1C2=NC(=NC(=C2)C3(CC3)[S@](=N)(=O)C)C4=C5C=CNC5=NC=C4 [AZD6738] (first compound max 1 µM, 7x7, partner max 10 µM) is above or exactly -0.03.
Return: class 1

Enquiry: Kindly determine if Bliss excess recorded for O=C(c1cc(Cc2n[nH]c(=O)c3ccccc23)ccc1F)N1CCN(C(=O)C2CC2)CC1 [Olaparib] + CN(CC[C@H](CSC1=CC=CC=C1)NC2=C(C=C(C=C2)S(=O)(=O)NC(=O)C3=CC=C(C=C3)N4CCC(CC4)[C@H](C5=CC=CC=C5C6=CC=C(C=C6)Cl)O)S(=O)(=O)C(F)(F)F)CCO [AZD4320] (first compound max 10 µM, 7x7, partner max 1 µM) is above or exactly -0.03.
Return: class 1

Enquiry: Kindly determine if Bliss excess recorded for CC1(C)CCC(CN2CCN(c3ccc(C(=O)NS(=O)(=O)c4ccc(NCC5CCOCC5)c([N+](=O)[O-])c4)c(Oc4cnc5[nH]ccc5c4)c3)CC2)=C(c2ccc(Cl)cc2)C1 [Venetoclax] + CS(=O)(=O)CCNCc1ccc(-c2ccc3ncnc(Nc4ccc(OCc5cccc(F)c5)c(Cl)c4)c3c2)o1 [Lapatinib] (first compound max 1 µM, 7x7, partner max 10 µM) is above or exactly -0.03.
Return: class 0

Enquiry: Kindly determine if Bliss excess recorded for Cc1c2c(nn1C)CSCc1cc(n(C)n1)CSc1cc(c3ccccc3c1)OCCCc1c(C(=O)O)n(C)c3c-2c(Cl)ccc13 [AZD5991] + C[C@@H]1COCCN1C2=NC(=NC(=C2)C3(CC3)[S@](=N)(=O)C)C4=C5C=CNC5=NC=C4 [AZD6738] (first compound max 1 µM, 7x7, partner max 10 µM) is above or exactly -0.03.
Return: class 1

Enquiry: Kindly determine if Bliss excess recorded for C=CCn1c(=O)c2cnc(Nc3ccc(N4CCN(C)CC4)cc3)nc2n1-c1cccc(C(C)(C)O)n1 [AZD1775] + C[C@@H]1COCCN1C2=NC(=NC(=C2)C3(CC3)[S@](=N)(=O)C)C4=C5C=CNC5=NC=C4 [AZD6738] (first compound max 1 µM, partner max 10 µM) is above or exactly -0.03.
Return: class 0

---

- Test system: U-2-OS (Osteosarcoma)
- assay_text: Bliss excess, mean over the matrix (fraction); higher = more synergy
property_measured: Bliss excess
Note: the reply should be a number with no unit written.

Enquiry: Report measured Bliss excess; entry is COc1nnc2ccc(N3CCC(c4ccc(OCCN5CCN(C)C(=O)[C@H]5C)cc4)CC3)nn12 [AZD5153] + Cc1c2c(nn1C)CSCc1cc(n(C)n1)CSc1cc(c3ccccc3c1)OCCCc1c(C(=O)O)n(C)c3c-2c(Cl)ccc13 [AZD5991] (first compound max 1 µM, 7x7, partner max 1 µM)
Return: 0.0074

Enquiry: Report measured Bliss excess; entry is CC1(C)CCC(CN2CCN(c3ccc(C(=O)NS(=O)(=O)c4ccc(NCC5CCOCC5)c([N+](=O)[O-])c4)c(Oc4cnc5[nH]ccc5c4)c3)CC2)=C(c2ccc(Cl)cc2)C1 [Venetoclax] + C=CCn1c(=O)c2cnc(Nc3ccc(N4CCN(C)CC4)cc3)nc2n1-c1cccc(C(C)(C)O)n1 [AZD1775] (first compound max 1 µM, partner max 1 µM)
Return: -0.018

Enquiry: Report measured Bliss excess; entry is C=CCn1c(=O)c2cnc(Nc3ccc(N4CCN(C)CC4)cc3)nc2n1-c1cccc(C(C)(C)O)n1 [AZD1775] + C[C@@H]1COCCN1C2=NC(=NC(=C2)C3(CC3)[S@](=N)(=O)C)C4=C5C=CNC5=NC=C4 [AZD6738] (first compound max 1 µM, partner max 10 µM)
Return: 0.0364

---

- Tested on: COLO-824 (Breast Carcinoma)
- assay_text: combination Emax (second highest fraction inhibited in the dose matrix, 72 h); higher = more inhibition; extreme values may be limits of the assay
property_measured: combination Emax
Note: the reply should be a number with no unit written.

Enquiry: Report measured combination Emax; entry is CN(C)CCCOc1ccc(-c2ccc3ncc4c(c3c2)n(C2CCOCC2)c(=O)n4C)cn1 [AZD0156] + C=CCn1c(=O)c2cnc(Nc3ccc(N4CCN(C)CC4)cc3)nc2n1-c1cccc(C(C)(C)O)n1 [AZD1775] (first compound max 1 µM, partner max 1 µM)
Return: 0.644

Enquiry: Report measured combination Emax; entry is CC(=O)Nc1cccc(-n2c(=O)n(C3CC3)c(=O)c3c(Nc4ccc(I)cc4F)n(C)c(=O)c(C)c32)c1 [Trametinib] + Cc1nc(-c2cn3c(n2)-c2ccc(-c4cnn(C(C)(C)C(N)=O)c4)cc2OCC3)n(C(C)C)n1 [Taselisib] (first compound max 1 µM, 7x7, partner max 10 µM)
Return: 0.976

Enquiry: Report measured combination Emax; entry is Cc1cc2ncnn2cc1Nc1ncc2c(n1)n(C1CCOCC1)c(=O)n2C [AZD7648] + C[C@@H]1COCCN1C2=NC(=NC(=C2)C3(CC3)[S@](=N)(=O)C)C4=C5C=CNC5=NC=C4 [AZD6738] (first compound max 10 µM, 7x7, partner max 10 µM)
Return: 0.738

Enquiry: Report measured combination Emax; entry is Cc1c2c(nn1C)CSCc1cc(n(C)n1)CSc1cc(c3ccccc3c1)OCCCc1c(C(=O)O)n(C)c3c-2c(Cl)ccc13 [AZD5991] + CN(C)CCCOc1ccc(-c2ccc3ncc4c(c3c2)n(C2CCOCC2)c(=O)n4C)cn1 [AZD0156] (first compound max 1 µM, 7x7, partner max 1 µM)
Return: 0.411

---

- System: 8-MG-BA (Glioblastoma)
- assay_text: Bliss excess, mean over the matrix (fraction); higher = more synergy
property_measured: Bliss excess

Enquiry: Report measured Bliss excess; entry is CN(CCO)CC[C@H](CSc1ccccc1)Nc1ccc(S(=O)(=O)NC(=O)c2ccc(N3CCC([C@@H](O)c4ccccc4-c4ccc(Cl)cc4)CC3)cc2)cc1S(=O)(=O)C(F)(F)F [AZD4320] + C1CN(CCC1(C(=O)N[C@@H](CCO)C2=CC=C(C=C2)Cl)N)C3=NC=NC4=C3C=CN4 [Capivasertib] (first compound max 1 µM, 7x7, partner max 3 µM)
Return: -0.0071

---

- Tested on: NCI-H2141 (Small Cell Lung Carcinoma)
- assay_text: Bliss excess, mean over the matrix (fraction); higher = more synergy
property_measured: Bliss excess
Note: the reply should be a number with no unit written.

Enquiry: Report measured Bliss excess; entry is COc1nnc2ccc(N3CCC(c4ccc(OCCN5CCN(C)C(=O)[C@H]5C)cc4)CC3)nn12 [AZD5153] + Cc1c2c(nn1C)CSCc1cc(n(C)n1)CSc1cc(c3ccccc3c1)OCCCc1c(C(=O)O)n(C)c3c-2c(Cl)ccc13 [AZD5991] (first compound max 1 µM, 7x7, partner max 1 µM)
Return: 0.0096

Enquiry: Report measured Bliss excess; entry is COc1nnc2ccc(N3CCC(c4ccc(OCCN5CCN(C)C(=O)[C@H]5C)cc4)CC3)nn12 [AZD5153] + C=CCn1c(=O)c2cnc(Nc3ccc(N4CCN(C)CC4)cc3)nc2n1-c1cccc(C(C)(C)O)n1 [AZD1775] (first compound max 1 µM, partner max 1 µM)
Return: -0.021

Enquiry: Report measured Bliss excess; entry is Cn1cnc2c(F)c(Nc3ccc(Br)cc3Cl)c(C(=O)NOCCO)cc21 [Selumetinib] + C[C@@H]1COCCN1C2=NC(=NC(=C2)C3(CC3)[S@](=N)(=O)C)C4=C5C=CNC5=NC=C4 [AZD6738] (first compound max 10 µM, 7x7, partner max 10 µM)
Return: -0.0666

Enquiry: Report measured Bliss excess; entry is Cc1c2c(nn1C)CSCc1cc(n(C)n1)CSc1cc(c3ccccc3c1)OCCCc1c(C(=O)O)n(C)c3c-2c(Cl)ccc13 [AZD5991] + C[C@@H](Nc1cc(F)cc(F)c1)c1cc(C(=O)N(C)C)cc2c(=O)cc(N3CCOCC3)oc12 [AZD8186] (first compound max 1 µM, 7x7, partner max 3 µM)
Return: 0.0257

Enquiry: Report measured Bliss excess; entry is CS(=O)(=O)CCNCc1ccc(-c2ccc3ncnc(Nc4ccc(OCc5cccc(F)c5)c(Cl)c4)c3c2)o1 [Lapatinib] + C[C@@H](Oc1cc(-c2cnn(C3CCNCC3)c2)cnc1N)c1c(Cl)ccc(F)c1Cl [Crizotinib] (first compound max 10 µM, 7x7, partner max 10 µM)
Return: -0.0758

Enquiry: Report measured Bliss excess; entry is C[C@@H]1COCCN1c1cc(C2([S@](C)(=N)=O)CC2)nc(-c2ccnc3[nH]ccc23)n1 [AZD6738] + O=C(c1cc(Cc2n[nH]c(=O)c3ccccc23)ccc1F)N1CCN(C(=O)C2CC2)CC1 [Olaparib] (first compound max 10 µM, 7x7, partner max 10 µM)
Return: 0.0682

Enquiry: Report measured Bliss excess; entry is CC(=O)c1c(C)c2cnc(Nc3ccc(N4CCNCC4)cn3)nc2n(C2CCCC2)c1=O [Palbociclib] + CC1(C)CCC(CN2CCN(c3ccc(C(=O)NS(=O)(=O)c4ccc(NCC5CCOCC5)c([N+](=O)[O-])c4)c(Oc4cnc5[nH]ccc5c4)c3)CC2)=C(c2ccc(Cl)cc2)C1 [Venetoclax] (first compound max 10 µM, 7x7, partner max 1 µM)
Return: -0.0298

Enquiry: Report measured Bliss excess; entry is CN(C)CCCOc1ccc(-c2ccc3ncc4c(c3c2)n(C2CCOCC2)c(=O)n4C)cn1 [AZD0156] + C[C@@H]1COCCN1C2=NC(=NC(=C2)C3(CC3)[S@](=N)(=O)C)C4=C5C=CNC5=NC=C4 [AZD6738] (first compound max 1 µM, 7x7, partner max 10 µM)
Return: -0.0766

Enquiry: Report measured Bliss excess; entry is COc1cccc(OCCCN)c1-c1cc(Nc2cnc(C#N)cn2)n[nH]1 [Prexasertib] + C[C@@H]1COCCN1C2=NC(=NC(=C2)C3(CC3)[S@](=N)(=O)C)C4=C5C=CNC5=NC=C4 [AZD6738] (first compound max 1 µM, 7x7, partner max 10 µM)
Return: -0.047

Enquiry: Report measured Bliss excess; entry is NC1(C(=O)N[C@@H](CCO)c2ccc(Cl)cc2)CCN(c2ncnc3[nH]ccc23)CC1 [Capivasertib] + C[C@@H]1COCCN1C2=NC(=NC(=C2)C3(CC3)[S@](=N)(=O)C)C4=C5C=CNC5=NC=C4 [AZD6738] (first compound max 10 µM, 7x7, partner max 10 µM)
Return: 0.0049

Enquiry: Report measured Bliss excess; entry is Cc1c2c(nn1C)CSCc1cc(n(C)n1)CSc1cc(c3ccccc3c1)OCCCc1c(C(=O)O)n(C)c3c-2c(Cl)ccc13 [AZD5991] + Cn1cnc2c(F)c(Nc3ccc(Br)cc3Cl)c(C(=O)NOCCO)cc21 [Selumetinib] (first compound max 1 µM, 7x7, partner max 3 µM)
Return: 0.0056

Enquiry: Report measured Bliss excess; entry is CC1(C)CCC(CN2CCN(c3ccc(C(=O)NS(=O)(=O)c4ccc(NCC5CCOCC5)c([N+](=O)[O-])c4)c(Oc4cnc5[nH]ccc5c4)c3)CC2)=C(c2ccc(Cl)cc2)C1 [Venetoclax] + CN(C)CCCOc1ccc(-c2ccc3ncc4c(c3c2)n(C2CCOCC2)c(=O)n4C)cn1 [AZD0156] (first compound max 1 µM, 7x7, partner max 1 µM)
Return: -0.0183

Enquiry: Report measured Bliss excess; entry is CN(CCO)CC[C@H](CSc1ccccc1)Nc1ccc(S(=O)(=O)NC(=O)c2ccc(N3CCC([C@@H](O)c4ccccc4-c4ccc(Cl)cc4)CC3)cc2)cc1S(=O)(=O)C(F)(F)F [AZD4320] + C=CCn1c(=O)c2cnc(Nc3ccc(N4CCN(C)CC4)cc3)nc2n1-c1cccc(C(C)(C)O)n1 [AZD1775] (first compound max 1 µM, partner max 1 µM)
Return: 0.0423
